Every entry's value here was drawn from patent US6207816.

# assayed target: PDGF-AB (Homo sapiens, UniProt P04085;P01127 P04085:87-211,P01127:82-190)
# Sequence (P01127 82-190, chain 2 of 2, other chains not shown): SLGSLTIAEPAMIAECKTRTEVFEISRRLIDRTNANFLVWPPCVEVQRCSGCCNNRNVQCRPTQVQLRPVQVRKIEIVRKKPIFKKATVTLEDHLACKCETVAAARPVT
# test: filter; 37 C, PBSM + 0.01% HSA; high affinity component
# conditions: tags: R&D Systems, E. coli; label: 5'-32P; three-way helix junction
measure name: pKd
In textbook form, pKd equals minus log to base ten of the concentration in mol/L.

Query: Which pKd is listed for TGGGAGGGCGCGTTCTTCGTGGTTACTTTTAGTCCCG (ssDNA, 3'-3' inverted T) [20t] ?
Reply: 9.83
